Sourced from PubChem BioAssay (NCI)

System: XF 498 CNS
measurement_notes: NCI tumour cell line growth inhibition, 48 h
Provide the recorded TGI for the entries that follow.
Dear colleague, please return just the value in µM, with no unit written.

response.value for `C1CN(c2nnc(N3CCC3)nn2)C1` (field: TGI) = 46.1

response.value for `Cc1ccc(N=C[N-]c2ccc(C)cc2)cc1.Cc1ccc(N=C[N-]c2ccc(C)cc2)cc1.O=C([O-])C(F)(F)F.O=C([O-])C(F)(F)F.[OH3+].[OH3+].[Rh+2].[Rh+2]` (field: TGI) = 59.4

response.value for `CC1=C(SC#N)S(=O)(=O)N(c2ccccc2)C(C)=C1SC#N` (field: TGI) = 72.3

response.value for `COc1ccc2nc(C(=O)c3ccccc3)c(C)cc2c1` (field: TGI) = 19.9

response.value for CCC(=O)OC1CCn2c1nc1c2C(=O)C(C)=C(NC(C)=O)C1=N (configuration not stated) (field: TGI) = 4.31

response.value for `CCCCN(C)/N=N/c1nc[nH]c1C(N)=O` (field: TGI) = 95.5

response.value for COC1=CC(C2c3cc4c(cc3[C@@H](Nc3ccc(F)cc3)C3COC(=O)[C@H]23)OCO4)=CC(=O)C1=O (some centres not stated) (field: TGI) = 27.9

response.value for `O=C(NC(=O)c1c(Cl)nc2sccn12)Nc1ccc(Cl)cc1` (field: TGI) = 42.3

response.value for `CCC[CH2][Sn]([CH2]CCC)([S]C#N)[S]C#N` (field: TGI) = 1.98

response.value for `CC(C)c1cccc(C(C)C)c1N1C(=O)C(=O)C(c2nc3ccccc3o2)C(=O)C1=O` (field: TGI) = 89.9

###

Provide the recorded TGI for the entries that follow.
Tested on: SNB-19 CNS
measurement_notes: NCI tumour cell line growth inhibition, 48 h
Dear colleague, please return just the value in µM, with no unit written.

response.value for `CS(=O)(=O)c1ccc(Nc2nc(N[C@H]3CCCC[C@H]3N)nc3cc[nH]c(=O)c23)cc1` (field: TGI) = 28.3

response.value for `CN(C)CCCn1c(=O)c2ccccc2c2cnc3[nH]ccc3c21` (field: TGI) = 10.6

response.value for CC1CCC2(OC1)OC1C(O)C3C4CCC5CC(OC6OC(CO)C(OC7OC(CO)C(O)C(OC8OCC(O)C(O)C8O)C7OC7OC(CO)C(O)C(OC8OC(CO)C(O)C(O)C8O)C7O)C(O)C6O)C(O)CC5(C)C4CCC3(C)C1C2C (stereo not drawn) (field: TGI) = 4.34

response.value for `CN=C1C=CC(=C(c2ccc(N(C)C)cc2)c2ccc(N(C)C)cc2)C=C1` (field: TGI) = 1.94

###

System: MCF7 breast
measurement_notes: NCI tumour cell line growth inhibition, 48 h; in the data active means GI50 below about 0.43 µM; inactive means the rest
Give your call using only these classes: active, inactive

Returns: the outcome recorded for `C#Cc1cccc(Nc2nc(Cl)nc3cc(NC(=O)CCl)ccc23)c1` in this assay. inactive

Returns: the outcome recorded for CCCCCC(O)C(O)CCC[C@H](O)[C@H]1CC[C@H]([C@H]2CC[C@H]([C@H](O)CCCCCCCCCCCCC3=C[C@H](C)OC3=O)O2)O1 (stereo partly drawn) in this assay. inactive

Returns: the outcome recorded for `COc1ccc(-c2ccc(/C=N/n3c(COc4ccccc4Cl)nn(CN4CCOCC4)c3=S)o2)c([N+](=O)[O-])c1` in this assay. inactive

Returns: the outcome recorded for `COc1ccc(/C=C/c2c(C(=O)/C=C/c3ccc(C(F)(F)F)cc3)c(C)nc3ccccc23)cc1` in this assay. inactive

Returns: the outcome recorded for `[N-]=[N+]=NCCCn1c2c(c3ccc([N+](=O)[O-])cc3c1=O)C(=O)c1cc(Br)ccc1-2` in this assay. inactive

Returns: the outcome recorded for CCN(CC)CCCC(C)Nc1cc(-c2cccc(OC(F)(F)F)c2)nc2ccc(N3CCCC3)cc12 (stereo not drawn) in this assay. active

Returns: the outcome recorded for COc1cc(OC)cc(C2C3=C(COC3=O)Nc3cc(OC)ccc32)c1 (stereo not drawn) in this assay. active

Returns: the outcome recorded for COc1ccccc1S(=O)(=O)Nc1ccc2c3c(cc(CCC(=O)NCCCCNc4cccc5c4C(=O)N(C4CCC(=O)NC4=O)C5=O)cc13)C(=O)N2C (stereo not drawn) in this assay. active

###

Test system: ACHN renal
measurement_notes: NCI tumour cell line growth inhibition, 48 h; in the data active = GI50 below about 0.43 µM; inactive = the rest
Give your call using only these classes: 1 (yes) for active, 0 (no) for inactive

Returns: the outcome recorded for `S=C1Cc2c(-c3ccc(Br)cc3)cc(-c3ccccc3)nc2-c2ccccc2N1` in this assay. 0 (no)

Returns: the outcome recorded for `ClCc1ccccc1Cn1cnc2ncnc(Cl)c21` in this assay. 0 (no)

Returns: the outcome recorded for `CC(C)N(Cc1ccc(CN(C(=O)CCl)C(C)C)cc1)C(=O)CCl` in this assay. 0 (no)

Returns: the outcome recorded for `C#Cc1cccc(Nc2nc(Cl)nc3cc(NC(=O)CCl)ccc23)c1` in this assay. 0 (no)

Returns: the outcome recorded for `C#C[C@@]1(O)[C@@H](CO)O[C@@H](n2cc(I)c3c(N)ncnc32)[C@@H]1O` in this assay. 1 (yes)

Returns: the outcome recorded for `CC(=O)N1CCN(CCNC(=O)n2cc(-c3ccncc3)c(-c3cc(O)cc(Cl)c3)n2)CC1` in this assay. 0 (no)

Returns: the outcome recorded for `CNCCCNc1nc2ccccc2c2c(=O)c3cc(OC)ccc3sc12` in this assay. 0 (no)

###

Tested on: CAKI-1 renal
measurement_notes: NCI tumour cell line growth inhibition, 48 h
endpoint_label: log10 TGI (log10 of the value in µM)
Note: values are log10 of TGI expressed in µM.

response.value for `CC(C)OC(=S)Nc1ccc(Cl)c(/C=N/OC(C)(C)C)c1` (field: log10 TGI) = 1.52

response.value for `O=C(/C=C/C=C/c1ccccc1)c1ccco1` (field: log10 TGI) = 1.52

response.value for `CNCCCNc1nc2ccccc2c2c(=O)c3cc(OC)ccc3sc12` (field: log10 TGI) = 0.50

response.value for `CN(C)CCCn1c(=O)c2ccccc2c2cnc3[nH]ccc3c21` (field: log10 TGI) = 0.67

response.value for `CS(=O)(=O)Nc1cccc(-c2ccc3ncnc(Nc4ccc(F)c(Cl)c4)c3c2)c1` (field: log10 TGI) = 1.28

response.value for `O=C(CN(/C=C/C(=O)C(F)(F)F)c1ccc(Cl)cc1)c1ccc(Cl)c(Cl)c1` (field: log10 TGI) = 1.10

response.value for `CC1(C)CC[C@]2(C(=O)O)CC[C@]3(C)[C@H](C(=O)C=C4[C@@]5(C)C=C(C#N)C(=O)C(C)(C)[C@@H]5CC[C@]43C)[C@@H]2C1` (field: log10 TGI) = 0.54

response.value for `CC(C)N(Cc1ccc(CN(C(=O)CCl)C(C)C)cc1)C(=O)CCl` (field: log10 TGI) = 0.53

response.value for `CC1=CCC[C@H]2[C@](C)(CC3=CC(=O)C(SCC(C)C)=CC3=O)[C@@H](C)CC[C@]12C` (field: log10 TGI) = 1.22

response.value for `COc1ccc(-c2cncn2-c2cc(OC)c(OC)c(OC)c2)cc1` (field: log10 TGI) = 0.27

response.value for `CCC[CH2][Sn]([CH2]CCC)([S]C#N)[S]C#N` (field: log10 TGI) = 0.27

response.value for `c1ccc(OCCC[P+](c2ccccc2)(c2ccccc2)c2ccccc2)cc1` (field: log10 TGI) = 1.45

response.value for `Cc1ccc(-c2nc(/C=N/Nc3cc(C)nc4ccc(Cl)cc34)c(C)o2)cc1` (field: log10 TGI) = 0.50

response.value for `S=C1Cc2c(-c3ccc(Br)cc3)cc(-c3ccccc3)nc2-c2ccccc2N1` (field: log10 TGI) = 0.56

response.value for `Cc1cc(C)c(C#N)c(Sc2nc(C)c([N+](=O)[O-])c(C)c2C#N)n1` (field: log10 TGI) = 0.75

response.value for `CC(C)(C)OC(=O)c1ccc(NCC2=C(Br)C(=O)C=CC2=O)cc1` (field: log10 TGI) = 1.43

response.value for `ClCc1ccccc1Cn1cnc2ncnc(Cl)c21` (field: log10 TGI) = 0.62

response.value for `NC1c2ccccc2Nc2ccccc21` (field: log10 TGI) = 1.24

response.value for CCCCCC(O)C(O)CCC[C@H](O)[C@H]1CC[C@H]([C@H]2CC[C@H]([C@H](O)CCCCCCCCCCCCC3=C[C@H](C)OC3=O)O2)O1 (stereo partly drawn) (field: log10 TGI) = 1.56

###

Tested on: TK-10 renal
measurement_notes: NCI tumour cell line growth inhibition, 48 h
endpoint_label: log10 TGI (log10 of the value in µM)
Note: values are log10 of TGI expressed in µM.

response.value for `O=C(NCC(F)(F)F)Nc1cccc(-c2cnc3cc(-c4ccc(F)cc4)ccn23)c1` (field: log10 TGI) = 1.25

response.value for `O=C(/C=C/C=C/c1ccccc1)c1ccco1` (field: log10 TGI) = 1.60

response.value for `COC(=O)c1c(-c2cccs2)oc(-c2cccs2)c1C(=O)OC` (field: log10 TGI) = 1.91

response.value for O=C(NNc1ccc(Cl)cc1)C1CCC(CNS(=O)(=O)c2ccccc2Cl)CC1 (stereo not given) (field: log10 TGI) = 0.82

response.value for `CC1(C)CC[C@]2(C(=O)O)CC[C@]3(C)[C@H](C(=O)C=C4[C@@]5(C)C=C(C#N)C(=O)C(C)(C)[C@@H]5CC[C@]43C)[C@@H]2C1` (field: log10 TGI) = 0.31

response.value for `Cc1c([C@H](C)[C@@H]2NC[C@@H](C)C[C@H]2O)ccc2c1C[C@H]1[C@H]2CC=C2C[C@@H](O)CC[C@@]21C` (field: log10 TGI) = 1.83

response.value for `O=c1[nH]nc(Cc2ccc(Cl)cc2)n1/N=C/c1ccc([N+](=O)[O-])o1` (field: log10 TGI) = 1.27

response.value for `O=C(CN(/C=C/C(=O)C(F)(F)F)c1ccc(Cl)cc1)c1ccc(Cl)c(Cl)c1` (field: log10 TGI) = 1.30

response.value for CCC(=O)OC1CCn2c1nc1c2C(=O)C(C)=C(NC(C)=O)C1=N (stereo not given) (field: log10 TGI) = 1.11

response.value for `S=C1Cc2c(-c3ccc(Br)cc3)cc(-c3ccccc3)nc2-c2ccccc2N1` (field: log10 TGI) = 0.57

response.value for `CSc1cnc2ccccc2c1Sc1c[nH]c2ccccc2c1=O` (field: log10 TGI) = 1.96

response.value for `Cc1ccc(-c2nc(/C=N/Nc3cc(C)nc4ccc(Cl)cc34)c(C)o2)cc1` (field: log10 TGI) = 0.52
